Numbers sourced from patent US9566312B2.

Known CypA Kd of a selection of compounds
# tgt: cyclophilin A (CypA) (Homo sapiens (Human))
# Sequence (P62937 whole entry): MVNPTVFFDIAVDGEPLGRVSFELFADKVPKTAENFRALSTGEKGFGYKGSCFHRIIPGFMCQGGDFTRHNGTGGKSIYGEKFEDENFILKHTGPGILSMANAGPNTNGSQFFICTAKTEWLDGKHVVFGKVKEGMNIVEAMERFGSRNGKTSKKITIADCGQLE
# test_summary: Inhibitor binding to cyclophilin proteins by SPR, CypA;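 note: Single-cycle kinetics on a Biacore T200, compound injected at several concentrations for 1 min each at 50 µL/min, then 10 min dissociation, in HEPES pH 7.4 buffer with 3% DMSO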
# Parameters: unit not given here
# condition_context: 1:1 binding model
Starred links: 1 amine or outer side, 2 acyl side, 3 side chain; linkers in the order of their positions; H or OH if unused. Non-standard residues stand in square brackets, D forms with d. Residues, ends and D or L forms follow the SMILES beside them. X67 = C[C@H](CCN1CCOC[C@@H]1C)[C@@H](C(=O)[*:2])N(C)[*:1]; X46 = C[C@H](CN1CC2CCC(C1)O2)[C@@H](C(=O)[*:2])N(C)[*:1]; MeBmt = C/C=C/C[C@@H](C)[C@@H](O)[C@H](NC)C(=O)O; NMeL = CN[C@@H](CC(C)C)C(=O)O; NMeV = CN[C@H](C(=O)O)C(C)C; dNMeA = CN[C@H](C)C(=O)O; Abu = CC[C@H](N)C(=O)O
Please respond with just the number, no unit label.

## Task What value of CypA Kd has been reported for the following compound? C/C=C/C[C@@H](C)[C@@H](O)[C@H]1C(=O)N[C@@H](CC)C(=O)N(C)[C@H](C)C(=O)N(C)[C@@H]([C@H](C)CCN2CCOC[C@@H]2C)C(=O)N[C@@H](C(C)C)C(=O)N(C)[C@@H](CC(C)C)C(=O)N[C@@H](C)C(=O)N[C@H](C)C(=O)N(C)[C@@H](CC(C)C)C(=O)N(C)[C@@H](CC(C)C)C(=O)N(C)[C@@H](C(C)C)C(=O)N1C [Compound 2.18.4] (cyclo(A[dA][NMeL][NMeL][NMeV][MeBmt][Abu][dNMeA][X67]V[NMeL]))
## Result 1.2

## Task Can you share its CypA Kd? I mean this compound: C/C=C/C[C@@H](C)[C@@H](O)[C@H]1C(=O)N[C@@H](CC)C(=O)N(C)[C@H](C)C(=O)N(C)[C@@H]([C@H](C)CN2CC3CCC(C2)O3)C(=O)N[C@@H](C(C)C)C(=O)N(C)[C@@H](CC(C)C)C(=O)N[C@@H](C)C(=O)N[C@H](C)C(=O)N(C)[C@@H](CC(C)C)C(=O)N(C)[C@@H](CC(C)C)C(=O)N(C)[C@@H](C(C)C)C(=O)N1C [Compound 2.5.3] (cyclo([MeBmt][Abu][dNMeA][X46]V[NMeL]A[dA][NMeL][NMeL][NMeV]))
## Result 2.4

----------
# tgt: organic anion transporting polypeptide 1B1 (OATP1B1) (Homo sapiens (Human), UniProt Q9Y6L6)
# Sequence (Q9Y6L6 whole entry): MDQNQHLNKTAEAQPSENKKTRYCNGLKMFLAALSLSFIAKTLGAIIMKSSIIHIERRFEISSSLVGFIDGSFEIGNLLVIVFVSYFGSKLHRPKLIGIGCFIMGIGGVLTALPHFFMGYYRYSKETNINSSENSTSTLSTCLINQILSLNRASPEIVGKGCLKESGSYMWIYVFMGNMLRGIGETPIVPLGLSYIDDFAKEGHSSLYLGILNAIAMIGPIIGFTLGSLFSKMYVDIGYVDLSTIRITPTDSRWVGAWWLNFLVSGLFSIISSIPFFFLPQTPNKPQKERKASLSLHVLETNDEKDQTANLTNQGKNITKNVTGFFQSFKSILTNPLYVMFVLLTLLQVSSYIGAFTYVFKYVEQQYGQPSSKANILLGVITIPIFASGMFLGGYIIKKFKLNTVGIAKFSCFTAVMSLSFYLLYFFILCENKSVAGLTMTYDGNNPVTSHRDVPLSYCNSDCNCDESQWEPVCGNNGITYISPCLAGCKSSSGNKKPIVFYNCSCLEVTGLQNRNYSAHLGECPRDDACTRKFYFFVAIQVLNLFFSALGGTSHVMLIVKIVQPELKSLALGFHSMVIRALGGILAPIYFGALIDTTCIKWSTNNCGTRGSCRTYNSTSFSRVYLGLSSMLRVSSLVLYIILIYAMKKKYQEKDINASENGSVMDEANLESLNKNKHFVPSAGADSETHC
# test_summary: OATP assay in CHO-OATP1B1 cells;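 note: inhibition of probe substrate uptake into the cells, ten minutes exposure, accumulated substrate read by fluorescence once cells were lysed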
Starred links: 1 amine or outer side, 2 acyl side, 3 side chain; linkers in the order of their positions; H or OH if unused. Non-standard residues stand in square brackets, D forms with d. Residues, ends and D or L forms follow the SMILES beside them. X18 = C[C@H](CCC(C)(C)O)[C@@H](C(=O)[*:2])N(C)[*:1]; X3 = C[C@H](CN1CCOCC1)[C@@H](C(=O)[*:2])N(C)[*:1]; MeBmt = C/C=C/C[C@@H](C)[C@@H](O)[C@H](NC)C(=O)O; NMeL = CN[C@@H](CC(C)C)C(=O)O; NMeV = CN[C@H](C(=O)O)C(C)C; dNMeA = CN[C@H](C)C(=O)O; Abu = CC[C@H](N)C(=O)O
measurement_kind: IC50 (µM)
Please reply with the bare figure in µM and do not write the unit itself.

molecule	measurement_kind	display_unit	experimental_result
C/C=C/C[C@@H](C)[C@@H](O)[C@H]1C(=O)N[C@@H](CC)C(=O)N(C)[C@H](C)C(=O)N(C)[C@@H]([C@H](C)CCC(C)(C)O)C(=O)N[C@@H](C(C)C)C(=O)N(C)[C@@H](CC(C)C)C(=O)N[C@@H](C)C(=O)N[C@H](C)C(=O)N(C)[C@@H](CC(C)C)C(=O)N(C)[C@@H](CC(C)C)C(=O)N(C)[C@@H](C(C)C)C(=O)N1C [Compound 2.12] (cyclo(A[dA][NMeL][NMeL][NMeV][MeBmt][Abu][dNMeA][X18]V[NMeL]))	IC50	µM	2.2

## Task Entry C/C=C/C[C@@H](C)[C@@H](O)[C@H]1C(=O)N[C@@H](CC)C(=O)N(C)[C@H](C)C(=O)N(C)[C@@H]([C@H](C)CN2CCOCC2)C(=O)N[C@@H](C(C)C)C(=O)N(C)[C@@H](CC(C)C)C(=O)N[C@@H](C)C(=O)N[C@H](C)C(=O)N(C)[C@@H](CC(C)C)C(=O)N(C)[C@@H](CC(C)C)C(=O)N(C)[C@@H](C(C)C)C(=O)N1C [Compound 2.5.2] (cyclo(A[dA][NMeL][NMeL][NMeV][MeBmt][Abu][dNMeA][X3]V[NMeL])) has what IC50?
## Result 8.2
